Molecular target: human PAH (Homo sapiens, UniProt P00439)
Construct: Full-length human TH isoform 1 (TH1), human PAH, human TPH2, and doubly truncated human TPH1; made in house; host or cells: E. coli TB1
Sequence (P00439 1-452): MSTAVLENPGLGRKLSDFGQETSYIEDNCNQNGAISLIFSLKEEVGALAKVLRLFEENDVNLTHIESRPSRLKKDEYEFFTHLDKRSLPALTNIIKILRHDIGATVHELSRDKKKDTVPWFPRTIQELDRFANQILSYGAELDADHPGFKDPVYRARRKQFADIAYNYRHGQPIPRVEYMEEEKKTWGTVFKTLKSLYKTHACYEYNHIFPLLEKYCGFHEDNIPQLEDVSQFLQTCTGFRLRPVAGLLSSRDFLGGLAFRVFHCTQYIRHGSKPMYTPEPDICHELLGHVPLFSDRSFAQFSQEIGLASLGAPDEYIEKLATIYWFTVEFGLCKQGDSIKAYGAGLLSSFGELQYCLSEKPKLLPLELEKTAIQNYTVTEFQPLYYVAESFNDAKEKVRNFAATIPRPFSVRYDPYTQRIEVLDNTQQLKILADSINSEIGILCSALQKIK
Test: PAH enzyme activity assay (HPLC, L-Tyr)
Format: biochemical
Details: best-fit IC50 (± SE), nonlinear regression; N.A. = no activity; read-out: IC50 (μM) PAH
experimental_readout: IC50 (µM)

INSERT INTO measurements (structure_smiles, target, endpoint_result) VALUES
  ('COc1ccc2c(c1)N(Cc1ccc(C(=O)NO)cc1)c1ccccc1S2', 'human PAH (Homo sapiens, UniProt P00439)', 8.12),
  ('Cc1ccn(-c2cc(Cl)ccc2[C@@H](Oc2cc(-c3ccc(C[C@H](N)C(=O)O)cc3)nc(N)n2)C(F)(F)F)n1', 'human PAH (Homo sapiens, UniProt P00439)', 4.9);

---

Biological target: TPH1 (Homo sapiens)
Construct: doubly truncated human TPH1 (ΔNH102-ΔCOOH402); made in house; host or cells: E. coli BL21(DE3)
Assay: Differential scanning fluorimetry (DSF) thermal stability assay
Type: binding
Conditions: DSF, 50 μM compound, vs averaged Tm of 0.5% DMSO controls
experimental_readout: ΔTm (°C) ± SD (°C), primary screen

INSERT INTO measurements (structure_smiles, experimental_readout, endpoint_result) VALUES
  ('O=C(/C=C/c1ccccc1Oc1ccc(Cl)cc1)NO', 'ΔTm (°C) ± SD (°C), primary screen', -3.4),
  ('COc1ccc2c(c1)N(Cc1ccc(C(=O)NO)cc1)c1ccccc1S2', 'ΔTm (°C) ± SD (°C), primary screen', 4.3),
  ('O=C(NO)c1ccc(Cl)c(C(=O)Nc2ccc(Cl)cc2)c1', 'ΔTm (°C) ± SD (°C), primary screen', 3.9);

---

Molecular target: doubly truncated human TPH1 (ΔNH102-ΔCOOH402) (Homo sapiens, UniProt P17752)
Construct: doubly truncated human TPH1 (ΔNH102-ΔCOOH402); made in house; host or cells: E. coli BL21(DE3)
Sequence (P17752 102-402, stated change not applied): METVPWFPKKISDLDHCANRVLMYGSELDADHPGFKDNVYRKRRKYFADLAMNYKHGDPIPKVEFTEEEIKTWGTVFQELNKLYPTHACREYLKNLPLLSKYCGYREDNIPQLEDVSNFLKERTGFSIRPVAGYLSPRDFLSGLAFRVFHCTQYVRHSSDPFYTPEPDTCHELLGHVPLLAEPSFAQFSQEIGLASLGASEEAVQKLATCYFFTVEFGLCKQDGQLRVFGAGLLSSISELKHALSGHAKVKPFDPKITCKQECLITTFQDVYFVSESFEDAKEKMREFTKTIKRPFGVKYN
Experiment: TPH1 enzyme activity assay (HPLC, 5-OH-Trp)
Format: biochemical
Details: best-fit IC50 (± SE), nonlinear regression; N.A. = no activity
IC50 under 50 µM gets t, anything at or over 50 µM gets f.

INSERT INTO assay_data (compound, qualitative_label) VALUES
  ('COc1ccc2c(c1)N(Cc1ccc(C(=O)NO)cc1)c1ccccc1S2', 'f'),
  ('O=C(NO)c1ccc(Cl)c(C(=O)Nc2ccc(Cl)cc2)c1', 't'),
  ('CC(C)c1cccc(=O)c(O)c1 [β-thujaplicin, reference compound]', 't'),
  ('Cc1[nH]c2ccccc2c1CCNCc1ccc(/C=C/C(=O)NO)cc1 [panobinostat, reference compound]', 'f');

---

Molecular target: TPH1 (Homo sapiens, UniProt P17752)
Construct: doubly truncated human TPH1 (ΔNH102-ΔCOOH402); made in house; host or cells: E. coli BL21(DE3)
Test: Differential scanning fluorimetry (DSF) thermal stability assay
Assay type: binding
Settings: DSF, 50 μM compound, vs averaged Tm of 0.5% DMSO controls
experimental_readout: ΔTm (°C) ± SD (°C), primary screen

INSERT INTO results (compound, experimental_readout, endpoint_result) VALUES
  ('COc1ccc(C(=O)NO)cc1NS(=O)(=O)c1ccc(C)cc1', 'ΔTm (°C) ± SD (°C), primary screen', 4.7),
  ('O=C(NO)c1cc2ccccc2[nH]1 [TB74, 1H-Indole-2-hydroxamic acid]', 'ΔTm (°C) ± SD (°C), primary screen', 4.4),
  ('O=C(NO)c1ccc(CN2c3ccccc3Sc3ccccc32)cc1', 'ΔTm (°C) ± SD (°C), primary screen', 3.6),
  ('O=C(NO)c1coc(C(c2ccccc2)c2ccccc2)n1', 'ΔTm (°C) ± SD (°C), primary screen', 3.1),
  ('COC(=O)[C@H](Cc1ccc(-c2ccc(C)cc2)cc1)NC(=O)CCCCCCC(=O)NO', 'ΔTm (°C) ± SD (°C), primary screen', 2.7),
  ('O=C(NO)c1cccc(NCc2ccccc2)c1 [TH28, 3-N-Benzylamino-benzohydroxamate]', 'ΔTm (°C) ± SD (°C), primary screen', 2.8),
  ('COc1ccc(C(=O)NO)cc1OCc1ccccc1 [PZ031, 3-Benzyloxy-4-methoxybenzhydroxamic acid]', 'ΔTm (°C) ± SD (°C), primary screen', 1.6),
  ('Cc1ccc(C(=O)NO)cc1C(=O)Nc1ccc(Cl)cc1', 'ΔTm (°C) ± SD (°C), primary screen', 2.7),
  ('Cc1cc2cc(NS(=O)(=O)c3cc(C(=O)NO)ccc3Cl)ccc2n(C)c1=O', 'ΔTm (°C) ± SD (°C), primary screen', 2.3);

---

Molecular target: TPH1 (Homo sapiens)
Construct: doubly truncated human TPH1 (ΔNH102-ΔCOOH402); made in house; host or cells: E. coli BL21(DE3)
Assay: Differential scanning fluorimetry (DSF) thermal stability assay
Type: binding
Settings: estimated from DSF dose-response, 2% DMSO; read-out: apparent KD (μM), dose-response
experimental_readout: Kd (µM)

INSERT INTO assay_data (molecule, censoring_operator, endpoint_result) VALUES
  ('O=C(NO)c1ccc(Cl)c(C(=O)Nc2ccc(Cl)cc2)c1', '=', 15.2),
  ('COc1ccc(C(=O)NO)cc1NS(=O)(=O)c1ccc(C)cc1', '=', 1.8),
  ('O=C(NO)c1coc(C(c2ccccc2)c2ccccc2)n1', '=', 30.9),
  ('COc1ccc2c(c1)N(Cc1ccc(C(=O)NO)cc1)c1ccccc1S2', '=', 49.4),
  ('COc1ccc(C(=O)NO)cc1OCc1ccccc1 [PZ031, 3-Benzyloxy-4-methoxybenzhydroxamic acid]', '=', 54.6),
  ('O=C(NO)c1ccc(CN2c3ccccc3Sc3ccccc32)cc1', '>', 100),
  ('Cc1[nH]c2ccccc2c1CCNCc1ccc(/C=C/C(=O)NO)cc1 [panobinostat, reference compound]', '=', 15.6),
  ('Cc1ccc(C(=O)NO)cc1C(=O)Nc1ccc(Cl)cc1', '=', 14.1),
  ('Cc1cc2cc(NS(=O)(=O)c3cc(C(=O)NO)ccc3Cl)ccc2n(C)c1=O', '=', 10.3),
  ('O=C(NO)c1cccc(NCc2ccccc2)c1 [TH28, 3-N-Benzylamino-benzohydroxamate]', '=', 76.3);

---

Quick reference: IC50 of the listed items.
Molecular target: human TH isoform 1 (TH1) (Homo sapiens)
Construct: Full-length human TH isoform 1 (TH1); His6-ZZ fusion partner (one of the two preparations only) (cleaved yes); made in house; host or cells: E. coli BL21(DE3) pLysS (pET3a) or BL21 CodonPlus (pET-ZZ-1a)
Sequence (P07101 1-497 isoform P07101-3): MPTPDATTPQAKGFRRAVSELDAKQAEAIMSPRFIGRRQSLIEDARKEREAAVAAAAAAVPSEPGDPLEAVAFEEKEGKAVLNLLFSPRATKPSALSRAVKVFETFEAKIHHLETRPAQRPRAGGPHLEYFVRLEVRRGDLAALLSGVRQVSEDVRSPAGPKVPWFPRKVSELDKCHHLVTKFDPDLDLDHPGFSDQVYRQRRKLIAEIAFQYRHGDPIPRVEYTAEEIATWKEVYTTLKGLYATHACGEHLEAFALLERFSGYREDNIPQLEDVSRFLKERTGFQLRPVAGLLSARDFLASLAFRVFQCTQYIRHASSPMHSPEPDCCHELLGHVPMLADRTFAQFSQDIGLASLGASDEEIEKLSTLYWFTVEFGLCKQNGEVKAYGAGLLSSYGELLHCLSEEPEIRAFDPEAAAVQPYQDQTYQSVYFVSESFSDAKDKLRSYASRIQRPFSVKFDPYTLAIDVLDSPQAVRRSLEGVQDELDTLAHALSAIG
Experiment: TH enzyme activity assay (HPLC, L-DOPA)
Type: biochemical
Details: best-fit IC50 (± SE), nonlinear regression; N.A. = no activity
experimental_readout: IC50 (µM)

INSERT INTO assay_data (compound, target, experimental_readout, endpoint_result) VALUES
  ('COc1ccc2c(c1)N(Cc1ccc(C(=O)NO)cc1)c1ccccc1S2 [KV103]', 'human TH isoform 1 (TH1) (Homo sapiens)', 'IC50', 100),
  ('Cc1ccn(-c2cc(Cl)ccc2[C@@H](Oc2cc(-c3ccc(C[C@H](N)C(=O)O)cc3)nc(N)n2)C(F)(F)F)n1 [telotristat]', 'human TH isoform 1 (TH1) (Homo sapiens)', 'IC50', 4.2),
  ('O=C(NO)c1ccc(Cl)c(C(=O)Nc2ccc(Cl)cc2)c1 [EG22]', 'human TH isoform 1 (TH1) (Homo sapiens)', 'IC50', 14.7);

---

Target: human PAH (Homo sapiens, UniProt P00439)
Construct: Full-length human TH isoform 1 (TH1), human PAH, human TPH2, and doubly truncated human TPH1; made in house; host or cells: E. coli TB1
Experiment: PAH enzyme activity assay (HPLC, L-Tyr)
Type: biochemical
Conditions: IC50 (μM) PAH, best-fit IC50 (± SE), nonlinear regression; N.A. = no activity
experimental_readout: IC50

INSERT INTO measurements (molecule, target, endpoint_result) VALUES
  ('O=C(CCCCCCC(=O)Nc1ccccc1)NO [vorinostat, reference compound]', 'human PAH (Homo sapiens, UniProt P00439)', '1.72 µM');
